Where these numbers come from: patent US20130116263A1

target: PAK4 (Homo sapiens, UniProt O96013); experiment: In vitro PAK inhibition assay (Z'-LYTE, SelectScreen), PAK4; format: biochemical
Sequence (O96013 whole entry): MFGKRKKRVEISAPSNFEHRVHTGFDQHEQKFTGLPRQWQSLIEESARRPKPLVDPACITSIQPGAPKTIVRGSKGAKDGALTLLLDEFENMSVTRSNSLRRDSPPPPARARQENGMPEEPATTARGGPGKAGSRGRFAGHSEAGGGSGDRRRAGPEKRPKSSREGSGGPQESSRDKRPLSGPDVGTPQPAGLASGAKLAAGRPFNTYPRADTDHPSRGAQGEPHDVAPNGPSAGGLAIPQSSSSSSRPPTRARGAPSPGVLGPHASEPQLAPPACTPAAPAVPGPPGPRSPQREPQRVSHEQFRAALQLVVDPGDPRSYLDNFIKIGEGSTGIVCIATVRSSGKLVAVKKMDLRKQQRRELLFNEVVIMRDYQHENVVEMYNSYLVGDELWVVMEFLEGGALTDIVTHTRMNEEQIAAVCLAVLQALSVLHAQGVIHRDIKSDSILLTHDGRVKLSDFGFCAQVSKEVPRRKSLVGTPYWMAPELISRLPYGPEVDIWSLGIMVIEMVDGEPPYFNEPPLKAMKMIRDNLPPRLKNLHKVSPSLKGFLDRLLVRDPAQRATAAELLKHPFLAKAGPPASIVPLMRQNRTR
pIC50: −log10 of the molar value.
Catalogue of compounds with associated pIC50

CCn1c(=O)c(-c2ccc(-c3nccnc3C)cc2Cl)cc2cnc(NC3CCCN(C)C3)nc21 (centres unmarked)    < 5.30
CCn1c(=O)c(-c2ccc(-c3nccnc3C)cc2Cl)cc2cnc(NC3CCNC(=O)C3)nc21 (centres unmarked)    < 5.30

[in] Which pIC50 is reported for this compound? CCn1c(=O)c(-c2ccc(-c3cncc(C)n3)cc2Cl)cc2cnc(NCCCOCCN)nc21
[out] < 5.30

[in] Which pIC50 is reported for this compound? Cc1cncc(-c2ccc(-c3cc4cnc(NCC5CC5)nc4n([C@H]4CC[C@H](N)CC4)c3=O)c(Cl)c2)n1
[out] 5.30 to 6.30

[in] Which pIC50 is reported for this compound? Cc1cncc(-c2ccc(-c3cc4cnc(NC5CC5)nc4n([C@H]4CC[C@H](N)CC4)c3=O)c(Cl)c2)n1
[out] 5.30 to 6.30

[in] Which pIC50 is reported for this compound? CCn1c(=O)c(-c2ccc(-c3cncc(C)n3)cc2Cl)cc2cnc(N[C@H]3CCOC3)nc21
[out] < 5.30

[in] Which pIC50 is reported for this compound? CCn1c(=O)c(-c2ccc(-c3cnccc3C)cc2Cl)cc2cnc(N[C@@H]3CCOC3)nc21
[out] < 5.30

[in] Which pIC50 is reported for this compound? CCn1c(=O)c(-c2ccc(-c3ccn(C)n3)cc2Cl)cc2cnc(N[C@@H]3CCOC3)nc21
[out] < 5.30

* * *

molecular target: PAK2 (PAK65) (Homo sapiens, UniProt Q13177); assay: In vitro PAK inhibition assay (Z'-LYTE, SelectScreen), PAK2; assay type: biochemical; settings: read-out: PAK2 IC50
Sequence (Q13177 whole entry): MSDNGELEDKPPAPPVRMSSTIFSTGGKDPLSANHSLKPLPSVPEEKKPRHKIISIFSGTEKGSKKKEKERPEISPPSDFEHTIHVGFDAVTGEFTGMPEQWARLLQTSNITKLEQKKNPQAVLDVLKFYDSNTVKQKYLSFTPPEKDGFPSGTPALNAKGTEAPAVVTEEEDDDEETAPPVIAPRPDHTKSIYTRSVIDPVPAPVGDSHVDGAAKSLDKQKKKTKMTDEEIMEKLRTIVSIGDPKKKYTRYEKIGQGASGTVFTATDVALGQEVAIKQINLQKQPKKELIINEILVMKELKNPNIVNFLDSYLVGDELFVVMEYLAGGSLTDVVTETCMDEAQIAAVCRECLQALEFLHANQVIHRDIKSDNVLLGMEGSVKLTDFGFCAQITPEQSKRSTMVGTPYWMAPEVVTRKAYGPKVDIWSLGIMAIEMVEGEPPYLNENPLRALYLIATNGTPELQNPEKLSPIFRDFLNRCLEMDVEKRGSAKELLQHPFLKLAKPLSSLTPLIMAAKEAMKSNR
pIC50: −log10 of the molar value.
Catalogue of compounds with associated pIC50

[in] Which pIC50 is reported for this compound? Cc1cncc(-c2ccc(-c3cc4cnc(NC5CC5)nc4n([C@H]4CC[C@H](N)CC4)c3=O)c(Cl)c2)n1
[out] > 7.30

[in] Which pIC50 is reported for this compound? Cc1cnc(-c2ccc(-c3cc4cnc(NC5CCOCC5)nc4n(Cc4ccccc4C(F)(F)F)c3=O)c(Cl)c2)s1
[out] 6.30 to 7.30

[in] Which pIC50 is reported for this compound? CCn1c(=O)c(-c2ccc(-c3cncc(C)n3)cc2Cl)cc2cnc(NC3CCOC3)nc21 (stereo not drawn)
[out] > 7.30

[in] Which pIC50 is reported for this compound? CCNc1ncc2cc(-c3ccc(-c4cncc(C)n4)cc3Cl)c(=O)n([C@H]3CC[C@H](N)CC3)c2n1
[out] > 7.30

[in] Which pIC50 is reported for this compound? CCn1c(=O)c(-c2ccc(-c3nccnc3C)cc2Cl)cc2cnc(N[C@H]3CC[C@H](N)CC3)nc21
[out] > 7.30

* * *

molecular target: PAK1 (Homo sapiens); test: In vitro PAK inhibition assay (Z'-LYTE, SelectScreen), PAK1; format: biochemical; conditions: read-out: PAK1 IC50
pIC50: −log10 of the molar value.
Catalogue of molecules with associated pIC50

CCn1c(=O)c(-c2ccc(-c3nccnc3C)cc2Cl)cc2cnc(N[C@H]3CCOC(C)(C)C3)nc21 (stereo in doubt)    > 7.30
CCn1c(=O)c(-c2ccc(-c3cncc(C)n3)cc2Cl)cc2cnc(NCCCC3CCN(C)CC3)nc21    6.30 to 7.30
CCn1c(=O)c(-c2ccc(-c3nccnc3C)cc2Cl)cc2cnc(NC3CCNCC3)nc21    5.30 to 6.30
CCn1c(=O)c(-c2ccc(-c3nccnc3C)cc2Cl)cc2cnc(NC3CCN(C)C(=O)C3)nc21 (stereo not drawn)    6.30 to 7.30
CCn1c(=O)c(-c2ccc(-c3cncc(C)n3)cc2Cl)cc2cnc(NCC3CCC(N(C)C)CC3)nc21 (stereo not drawn)    6.30 to 7.30

[in] Which pIC50 is reported for this molecule? Cc1nccnc1-c1ccc(-c2cc3cnc(N[C@@H]4CCOC4)nc3n(Cc3cccnc3)c2=O)c(Cl)c1
[out] 6.30 to 7.30

* * *

molecular target: PAK1 (Homo sapiens, UniProt Q13153); experiment: In vitro PAK inhibition assay (Z'-LYTE, SelectScreen), PAK1; format: biochemical; conditions: read-out: PAK1 IC50
Sequence (Q13153 whole entry): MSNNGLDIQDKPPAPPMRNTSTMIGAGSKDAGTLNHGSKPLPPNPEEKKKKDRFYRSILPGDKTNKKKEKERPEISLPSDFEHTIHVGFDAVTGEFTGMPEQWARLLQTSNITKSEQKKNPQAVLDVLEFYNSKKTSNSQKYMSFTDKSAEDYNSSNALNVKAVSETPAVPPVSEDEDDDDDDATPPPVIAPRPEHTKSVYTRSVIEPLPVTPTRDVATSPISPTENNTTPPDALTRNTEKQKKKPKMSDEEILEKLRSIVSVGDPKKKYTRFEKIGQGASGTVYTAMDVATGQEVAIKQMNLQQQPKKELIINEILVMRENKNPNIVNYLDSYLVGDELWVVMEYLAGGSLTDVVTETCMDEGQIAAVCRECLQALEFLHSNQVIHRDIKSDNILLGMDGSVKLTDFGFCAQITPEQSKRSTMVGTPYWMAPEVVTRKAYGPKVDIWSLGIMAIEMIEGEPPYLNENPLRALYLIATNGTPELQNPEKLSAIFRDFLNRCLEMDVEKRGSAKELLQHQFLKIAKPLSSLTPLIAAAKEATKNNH
value.type: IC50

CCn1c(=O)c(-c2ccc(-c3ccn(C)n3)cc2Cl)cc2cnc(N[C@@H]3CCOC3)nc21 [Example 63]    50 to 500 nM
Cc1cncc(-c2ccc(-c3cc4cnc(N[C@@H]5CCOC5)nc4n(CCN)c3=O)c(Cl)c2)n1 [Example 99]    < 50 nM
Cc1cnc(-c2ccc(-c3cc4cnc(NC5CCOCC5)nc4[nH]c3=O)c(Cl)c2)s1 [Example 14]    > 5000 nM
CCn1c(=O)c(-c2ccc(-c3cccnc3C)cc2Cl)cc2cnc(N[C@@H]3CCOC3)nc21 [Example 59]    500 to 5000 nM

[in] Which IC50 is reported for this compound? Cc1cncc(-c2ccc(-c3cc4cnc(NC(C)C)nc4n([C@H]4CC[C@H](N)CC4)c3=O)c(Cl)c2)n1 [Example 116]
[out] < 50 nM

[in] Which IC50 is reported for this compound? Cc1nccnc1-c1ccc(-c2cc3cnc(NC4CCOCC4)nc3n(C)c2=O)c(Cl)c1 [Example 9]
[out] 50 to 500 nM

[in] Which IC50 is reported for this compound? CCNc1ncc2cc(-c3ccc(-c4nccnc4C)cc3Cl)c(=O)n(CC)c2n1 [Example 6]
[out] 50 to 500 nM

[in] Which IC50 is reported for this compound? Cc1cncc(-c2ccc(-c3cc4cnc(NC5CCOCC5)nc4n(Cc4ccccc4F)c3=O)c(Cl)c2)n1 [Example 36]
[out] 50 to 500 nM

[in] Which IC50 is reported for this compound? CCn1c(=O)c(-c2ccc(-c3cccnc3F)cc2Cl)cc2cnc(N[C@H]3CCOC3)nc21 [Example 41]
[out] < 50 nM

[in] Which IC50 is reported for this compound? Cc1cncc(-c2ccc(-c3cc4cnc(NC5CC5)nc4n([C@H]4CC[C@H](N)CC4)c3=O)c(Cl)c2)n1 [Example 112]
[out] < 50 nM

[in] Which IC50 is reported for this compound? CCn1c(=O)c(-c2ccc(-c3nccnc3C)cc2C)cc2cnc(NC3CCOCC3)nc21 [Example 1]
[out] 50 to 500 nM

[in] Which IC50 is reported for this compound? Cc1cncc(-c2ccc(-c3cc4cnc(NC5CCOCC5)nc4n(Cc4ccccc4Cl)c3=O)c(Cl)c2)n1 [Example 42]
[out] < 50 nM

[in] Which IC50 is reported for this compound? CCn1c(=O)c(-c2ccc(-c3cncc(C)n3)cc2Cl)cc2cnc(NCCCOCCCN)nc21 [Example 129]
[out] < 50 nM

[in] Which IC50 is reported for this compound? Cc1nc(-c2ccc(-c3cc4cnc(NC5CCOCC5)nc4[nH]c3=O)c(Cl)c2)no1 [Example 11]
[out] 50 to 500 nM

[in] Which IC50 is reported for this compound? CCn1c(=O)c(-c2ccc(-c3cnc(C)cn3)cc2Cl)cc2cnc(N[C@@H]3CCOC3)nc21 [Example 50]
[out] 50 to 500 nM

[in] Which IC50 is reported for this compound? Cc1cncc(-c2ccc(-c3cc4cnc(NC5CC5)nc4n(CCN)c3=O)c(Cl)c2)n1 [Example 111]
[out] 50 to 500 nM

[in] Which IC50 is reported for this compound? CCn1c(=O)c(-c2ccc(-c3nccnc3C)cc2Cl)cc2cnc(NC3CCN(C)CC3)nc21 [Example 5]
[out] 500 to 5000 nM

[in] Which IC50 is reported for this compound? Cc1nccnc1-c1ccc(-c2cc3cnc(NC4CCOCC4)nc3[nH]c2=O)c(Cl)c1 [Example 10]
[out] 50 to 500 nM

[in] Which IC50 is reported for this compound? Cc1nccnc1-c1ccc(-c2cc3cnc(N[C@H]4CCOC4)nc3n(Cc3ccccn3)c2=O)c(Cl)c1 [Example 125]
[out] < 50 nM

[in] Which IC50 is reported for this compound? Cc1cncc(-c2ccc(-c3cc4cnc(NC5CCCCC5)nc4n([C@H]4CC[C@H](N)CC4)c3=O)c(Cl)c2)n1 [Example 114]
[out] < 50 nM

[in] Which IC50 is reported for this compound? CCn1c(=O)c(-c2ccc(-c3cncc(C)n3)cc2Cl)cc2cnc(NC3CCOCC3)nc21 [Example 7]
[out] < 50 nM

[in] Which IC50 is reported for this compound? Cc1cncc(-c2ccc(-c3cc4cnc(NC5CCOCC5)nc4n(Cc4ccccc4C(F)(F)F)c3=O)c(Cl)c2)n1 [Example 20]
[out] 50 to 500 nM

[in] Which IC50 is reported for this compound? Cc1cncc(-c2ccc(-c3cc4cnc(NCC(C)C)nc4n([C@H]4CC[C@H](N)CC4)c3=O)c(Cl)c2)n1 [Example 115]
[out] < 50 nM
